Target: Glycogen synthase kinase-3 beta (Homo sapiens, UniProt P49841)
Sequence (P49841 whole entry): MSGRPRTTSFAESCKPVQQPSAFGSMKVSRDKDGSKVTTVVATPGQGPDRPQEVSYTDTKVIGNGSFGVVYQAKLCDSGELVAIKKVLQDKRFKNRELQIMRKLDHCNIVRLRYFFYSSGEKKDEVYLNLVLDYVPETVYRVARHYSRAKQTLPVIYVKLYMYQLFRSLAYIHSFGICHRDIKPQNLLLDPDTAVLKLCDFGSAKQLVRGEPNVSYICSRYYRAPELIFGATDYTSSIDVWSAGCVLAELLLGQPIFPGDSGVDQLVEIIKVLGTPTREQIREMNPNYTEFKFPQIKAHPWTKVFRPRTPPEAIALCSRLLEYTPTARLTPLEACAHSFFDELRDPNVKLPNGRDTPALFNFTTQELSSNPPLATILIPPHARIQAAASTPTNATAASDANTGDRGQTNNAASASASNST
Experiment: Inhibition of Glycogen synthase kinase-3 beta in human SH-SY5Y cells after 2 hrs by ELISA
Type: cell-based
Field: pIC50. Provide a value for each of the molecules that follow.
Give bare numbers, as −log10 of the molar value.

>  <Given Smiles>
COc1ccc(-c2cc(=O)c3c(OC)c([C@H]4O[C@H](C(=O)N[C@H](C)C(F)(F)F)[C@@H](O)[C@H](O)[C@H]4O)c(OC)cc3o2)cc1OC

>  <Tested On>
Glycogen synthase kinase-3 beta (Homo sapiens, UniProt P49841)

>  <Reported Measurement>
5.64

$$$$
>  <Given Smiles>
COc1ccc(-c2cc(=O)c3c(OC)c([C@H]4O[C@H](CO)[C@@H](O)[C@H](O)[C@H]4O)c(OC)cc3o2)cc1OC

>  <Tested On>
Glycogen synthase kinase-3 beta (Homo sapiens, UniProt P49841)

>  <Reported Measurement>
3.62

$$$$

Fill in pIC50 for each of the 2 molecules listed.
1. COc1ccc(-c2cc(=O)c3c(OC)c([C@H]4O[C@H](C(=O)N[C@@H](C)C(F)(F)F)[C@@H](O)[C@H](O)[C@H]4O)c(OC)cc3o2)cc1OC
2. COc1ccc(-c2cc(=O)c3c(OC)c([C@H]4O[C@H](C(=O)O)[C@@H](O)[C@H](O)[C@H]4O)c(OC)cc3o2)cc1OC

Found:
6.23
3.62

###

Biological target: UniProtKB P49841
Experiment: Inhibition of full length recombinant His-tagged human Glycogen synthase kinase-3 beta expressed in Baculovirus expression system
Quantity Kind: pIC50
Answers are plain numbers, as −log10 of the molar value.

Lookup: Form field - read-out: pIC50; system: UniProtKB P49841; submitted item: NCCCn1cc(C2=C(c3cccc4ccccc34)C(=O)NC2=O)c2cccnc21
Found: 7.51

###

Biological target: Glycogen synthase kinase-3 beta (Homo sapiens, UniProt P49841)
Test: Inhibition of Glycogen synthase kinase-3 beta (unknown origin) after 30 mins by Kinase-Glo assay
Quantity Kind: pIC50
One number for each entry, as −log10 of the molar value.

>  <Compound>
CCc1ccc(-n2cc(CSC3=NC(c4ccccc4)CC(=O)N3C)nn2)cc1 (configuration not stated)

>  <pIC50>
7.03

$$$$

Would you mind giving pIC50 for every compound in the list below?
1. Cc1ccc(-n2cc(CSC3=NC(c4ccccc4)CC(=O)N3C)nn2)cc1C (configuration not stated)
2. CN1C(=O)CC(c2ccccc2)N=C1SCc1cn(-c2cccc([N+](=O)[O-])c2)nn1 (configuration not stated)
3. CN1C(=O)CC(c2ccccc2)N=C1SCc1cn(-c2ccc(C(C)(C)C)cc2)nn1 (configuration not stated)
4. CN1C(=O)CC(c2ccccc2)N=C1SCc1cn(-c2ccccc2)nn1 (configuration not stated)
5. COc1ccccc1-n1cc(CSC2=NC(c3ccccc3)CC(=O)N2C)nn1 (configuration not stated)

Found:
7.09
6.82
5.87
6.04
5.88

Lookup: Give the measured pIC50 of CN1C(=O)CC(c2ccccc2)N=C1SCc1cn(-c2ccccc2F)nn1 (configuration not stated) .
Found: 6.91

###

Molecular target: Glycogen synthase kinase-3 beta (Homo sapiens, UniProt P49841)
Test: Inhibition of Glycogen synthase kinase-3 beta (unknown origin)
Quantity Kind: IC50 (nM)
Give bare numbers, in nM.

// below: answered molecules
>  <Given Smiles>
COc1ccc(NC(=O)c2ccc(NC3=C(c4ccc(OC)cc4)C(=O)NC3=O)cc2)cc1

>  <Unit Abbreviation>
nM

>  <IC50>
90

$$$$
>  <Given Smiles>
C=CC(=O)Nc1cccc(C2=C(c3cn(C)c4cc(OC)ccc34)C(=O)NC2=O)c1

>  <Unit Abbreviation>
nM

>  <IC50>
690

$$$$
>  <Given Smiles>
COc1ccc(/C=C/C(O)=C/C(=O)/C=C/c2ccc(OCc3ccccc3)cc2)cc1OC

>  <Unit Abbreviation>
nM

>  <IC50>
900

$$$$
>  <Given Smiles>
CCc1ccc(-n2cc(CSc3nnc(Cn4c(C(F)(F)F)nc5ccccc54)o3)nn2)cc1

>  <Unit Abbreviation>
nM

>  <IC50>
390

$$$$
>  <Given Smiles>
CC(C)n1cc(C2=C(c3cccc(NC(=O)CF)c3)C(=O)NC2=O)c2cccnc21

>  <Unit Abbreviation>
nM

>  <IC50>
17

$$$$

Dear reader, for each entry below, please note its IC50.
1. C=CC(=O)Nc1cccc(C2=C(c3cn(C(C)C)c4ncccc34)C(=O)NC2=O)c1
2. Cc1ccc2[nH]nc(C(=O)NCC3CCN(C(=O)Nc4ccccc4)CC3)c2c1
3. FC(F)(F)c1nc2ccccc2n1Cc1nnc(SCc2cn(-c3cccnc3)nn2)o1
4. FC(F)(F)c1nc2ccccc2n1Cc1nnc(SCc2cn(-c3ccccc3)nn2)o1

Found:
1. 34
2. 640
3. 150
4. 320

###

Assay: Inhibition of full length recombinant His-tagged human Glycogen synthase kinase-3 beta expressed in Baculovirus expression system
Would you mind telling me the reported pIC50 of each entry?
Answers are plain numbers, as −log10 of the molar value.

>  <Given Smiles>
O=C1NC(=O)C(c2cn(CCCO)c3ncccc23)=C1c1ccccc1C(F)(F)F

>  <pIC50>
7.85

$$$$
>  <Given Smiles>
COc1ccccc1C1=C(c2cn(CCCO)c3ncccc23)C(=O)NC1=O

>  <pIC50>
8.40

$$$$
>  <Given Smiles>
O=C1NC(=O)C(c2cn(CCCO)c3ncccc23)=C1c1ccccc1Cl

>  <pIC50>
8.00

$$$$

For the next question, use this compound.
Lookup: Quick one: pIC50 for CN(C)CCCn1cc(C2=C(c3cccc4ccccc34)C(=O)NC2=O)c2cccnc21 ?
Found: 6.85

###

Target: Glycogen synthase kinase-3 beta (Homo sapiens)
Test: Inhibition of Glycogen synthase kinase-3 beta (unknown origin)
Exercise: state measured IC50 for each of the molecules provided.
Numbers only, in nM.

Below are worked cases with known answers.
>  <Given Smiles>
COc1ccc(C2=C(Nc3ccc(C(=O)Nc4ccccc4)cc3)C(=O)NC2=O)cc1

>  <Tested On>
Glycogen synthase kinase-3 beta (Homo sapiens)

>  <IC50, nM>
170

$$$$
>  <Given Smiles>
COc1ccc(C2=C(Nc3ccc(C(=O)Nc4ccc(Cl)cc4)cc3)C(=O)NC2=O)cc1

>  <Tested On>
Glycogen synthase kinase-3 beta (Homo sapiens)

>  <IC50, nM>
190

$$$$
>  <Given Smiles>
COc1ccc(NC(=O)c2ccc(NC3=C(c4ccccc4)C(=O)NC3=O)cc2)cc1

>  <Tested On>
Glycogen synthase kinase-3 beta (Homo sapiens)

>  <IC50, nM>
120

$$$$
>  <Given Smiles>
O=C(CSc1nnc(Cn2c(C(F)(F)F)nc3ccccc32)o1)Nc1ccccc1

>  <Tested On>
Glycogen synthase kinase-3 beta (Homo sapiens)

>  <IC50, nM>
130

$$$$
>  <Given Smiles>
C=CC(=O)Nc1cccc(C2=C(c3cn(C)c4ccc(F)cc34)C(=O)NC2=O)c1

>  <Tested On>
Glycogen synthase kinase-3 beta (Homo sapiens)

>  <IC50, nM>
150

$$$$

// each molecule listed below needs its IC50
1. C=CC(=O)Nc1cccc(C2=C(c3cn(C)c4cc(F)ccc34)C(=O)NC2=O)c1
2. O=C(CSc1nnc(Cn2c(C(F)(F)F)nc3ccccc32)o1)Nc1ccc(F)cc1
3. Fc1ccccc1-n1cc(CSc2nnc(Cn3c(C(F)(F)F)nc4ccccc43)o2)nn1

Found:
[199, 200, 270]

Source listed as ChEMBL document CHEMBL4602602.
